Test system: velvetleaf (Abutilon theophrasti, ABT)
Assay Remarks: Pre-emerge test, velvetleaf
Assay type: in vivo
Test Context: 250 g ai/ha, 14 days after application, rating scale 0-100 (0 no damage, 100 complete death)
Below, each entry is listed alongside its reported Pre-emerge Herbicidal Activity ABT (phytotoxicity rating).

Please review the following examples before continuing.
{"columns": ["Compound", "System Tested", "Reported Value"],
 "data": [
  ["CC(C)C1C(=O)Nc2c3c(cc(F)c2-n2c(=O)cc(C(F)(F)F)n(C)c2=O)OCC(=O)N31 (stereo not drawn) [1-77]", "velvetleaf (Abutilon theophrasti, ABT)", 100],
  ["CCC1C(=O)Nc2c3c(cc(F)c2-n2c(=O)cc(C(F)(F)F)n(C)c2=O)OCC(=O)N31 (stereo not drawn) [1-4]", "velvetleaf (Abutilon theophrasti, ABT)", 100]
]}

# evaluate next
Data point: CC1Oc2cc(F)c(-c3nn(C)c(C(F)(F)F)c3Cl)c3c2N(C1=O)C(C)C(=O)N3 (mixture of isomers) [1-50] ; Pre-emerge Herbicidal Activity ABT (phytotoxicity rating) = 100

---

Tested on: field corn (Zea mays L., var. Dekalb 535, CORN)
Assay Remarks: Post-emerge test, crop damage field corn
Assay type: in vivo
Test Context: post-emerge, 250 g ai/ha, 14 days after application, rating scale 0-100 (0 no damage, 100 complete death)
As shown below, each of these compounds has a reported Post-emerge crop damage CORN (phytotoxicity rating) value.
API note: the answer field is a bare number with no unit suffix.

{"columns": ["Compound", "Reported Value"],
 "data": [
  ["CC1C(=O)Nc2c(-c3nn(C)c(OC(F)F)c3Cl)c(F)cc3c2N1C(=O)C(C)(C)O3 (stereo not drawn)", 5]
]}

response.value for Cn1nc(-c2c(F)cc3c4c2NC(=O)CN4C(=O)C(C)(C)O3)c(Cl)c1OC(F)F (field: Post-emerge crop damage CORN (phytotoxicity rating)) = 10

Looking up Cn1nc(-c2c(F)cc3c4c2NC(=O)C(Cl)N4C(=O)CO3)c(Cl)c1OC(F)F (stereo not drawn) , I see its Post-emerge crop damage CORN (phytotoxicity rating) listed as 0

---

Test system: field corn (Zea mays L., var. Dekalb 535, CORN)
Assay Remarks: Post-emerge test, crop damage field corn
Format: in vivo
Test Context: var. Dekalb 535, Zea mays (field corn), in vivo, 14 days
Measured Metric: Post-emerge crop damage CORN (phytotoxicity rating)

Field: example entries. Status: answers known.
{"columns": ["Compound Smiles", "Reported Value"],
 "data": [
  ["C[C@H]1Oc2cc(F)c(-c3nn(C)c(OC(F)F)c3Cl)c3c2N(CC(=O)N3)C1=O", 15],
  ["C[C@H]1Oc2cc(F)c(-c3nn(C)c(C(F)(F)F)c3Cl)c3c2N(CC(=O)N3)C1=O", 10],
  ["Cn1nc(-c2c(F)cc3c4c2NC(=O)C(C)(C)N4C(=O)CO3)c(Cl)c1C(F)(F)F", 35]
]}

# Cn1nc(-c2c(F)cc3c4c2NC(=O)CN4C(=O)C(C)(C)O3)c(Cl)c1C(F)(F)F with field corn (Zea mays L., var. Dekalb 535, CORN): Post-emerge crop damage CORN (phytotoxicity rating) is 0

---

Tested on: soybean (Glycine max L., var. Pella 86, SOY)
Assay Remarks: Pre-emerge test, crop damage soybean
Format: in vivo
Test Context: pre-emerge, 250 g ai/ha, 14 days after application, rating scale 0-100 (0 no damage, 100 complete death)
Measured Metric: Pre-emerge crop damage SOY (phytotoxicity rating)
Lab note: record the figure alone, no unit after it.

Previously resolved entries follow.
{"columns": ["Compound", "System Tested", "Reported Value"],
 "data": [
  ["CC1C(=O)Nc2c3c(cc(F)c2-n2c(=O)cc(C(F)(F)F)n(C)c2=O)OCC(=O)N31 (stereo not shown) [1-2]", "soybean (Glycine max L., var. Pella 86, SOY)", 99],
  ["O=C1CN2C(=O)COc3cc(F)c(N4C(=O)C5=C(CCCC5)C4=O)c(c32)N1 [1-37]", "soybean (Glycine max L., var. Pella 86, SOY)", 10],
  ["Cc1nn(-c2c(F)cc3c4c2NC(=O)C(C)N4C(=O)CO3)c(=O)n1C(F)F (stereo not shown) [1-74]", "soybean (Glycine max L., var. Pella 86, SOY)", 95],
  ["CC1Oc2cc(F)c(-c3nn(C)c(C(F)(F)F)c3Cl)c3c2N(C1=O)C(C)C(=O)N3 (mixture of isomers) [1-51]", "soybean (Glycine max L., var. Pella 86, SOY)", 65],
  ["Cn1nc(-c2c(F)cc3c4c2NC(=O)C(c2ccccc2)N4C(=O)CO3)c(Cl)c1OC(F)F (stereo not shown) [1-33]", "soybean (Glycine max L., var. Pella 86, SOY)", 15],
  ["Cn1nc(-c2c(F)cc3c4c2NC(=O)C(Cl)N4C(=O)CO3)c(Cl)c1OC(F)F (stereo not shown) [1-79]", "soybean (Glycine max L., var. Pella 86, SOY)", 40]
]}

Pre-emerge crop damage SOY (phytotoxicity rating) reading for CC1Oc2cc(F)c(-c3nn(C)c(OC(F)F)c3Cl)c3c2N(C1=O)C(C)C(=O)N3 (mixture of isomers) [1-57] : 50

Form field Pre-emerge crop damage SOY (phytotoxicity rating), entry Cn1nc(-c2c(F)cc3c4c2NC(=O)C(C)(C)N4C(=O)CO3)c(Cl)c1OC(F)F [1-27] : 35

The reported value for CCC1C(=O)Nc2c3c(cc(F)c2-n2c(=O)cc(C(F)(F)F)n(C)c2=O)OCC(=O)N31 (stereo not shown) [1-4] in terms of Pre-emerge crop damage SOY (phytotoxicity rating) is 100

Noted for Cc1nn(-c2c(F)cc3c4c2NC(=O)CN4C(=O)CO3)c(=O)n1C(F)F [1-73] : its Pre-emerge crop damage SOY (phytotoxicity rating) reads 60

Short answer for CCC1C(=O)Nc2c3c(cc(F)c2-n2nc(C)n(C(F)F)c2=O)OCC(=O)N31 (stereo not shown) [1-75] : Pre-emerge crop damage SOY (phytotoxicity rating) was 98

Lookup result for CC1Oc2cc(F)c(-c3nn(C)c(OC(F)F)c3Cl)c3c2N(CC(=O)N3)C1=O (stereo not shown) [1-56] ; measured Pre-emerge crop damage SOY (phytotoxicity rating): 15

Value of measured Pre-emerge crop damage SOY (phytotoxicity rating) for the entry O=C1CN2C(=O)COc3cc(F)c(-c4ncc(C(F)(F)F)cc4Cl)c(c32)N1 [1-63] : 50

According to the records, this compound Cn1nc(-c2c(F)cc3c4c2NC(=O)CN4C(=O)C(C)(C)O3)c(Cl)c1OC(F)F [1-59] displays Pre-emerge crop damage SOY (phytotoxicity rating) of 15

What the record says about CC1Oc2cc(F)c(-c3nn(C)c(C(F)(F)F)c3Cl)c3c2N(C1=O)C(C)C(=O)N3 (mixture of isomers) [1-50] : Pre-emerge crop damage SOY (phytotoxicity rating) is 60

// CC(C)C1C(=O)Nc2c3c(cc(F)c2-n2c(=O)cc(C(F)(F)F)n(C)c2=O)OCC(=O)N31 (stereo not shown) [1-77] : Pre-emerge crop damage SOY (phytotoxicity rating) value = 100

Short answer for O=C1CN2C(=O)COc3cc(F)c(-n4nnn(CCCF)c4=O)c(c32)N1 [1-76] : Pre-emerge crop damage SOY (phytotoxicity rating) was 0

Just so you know, measured Pre-emerge crop damage SOY (phytotoxicity rating) for Cn1c(C(F)(F)F)cc(=O)n(-c2c(F)cc3c4c2NC(=O)CN4C(=O)CO3)c1=O [1-1] came out at 100

The measured Pre-emerge crop damage SOY (phytotoxicity rating) associated with Cn1nc(-c2c(F)cc3c4c2NC(=O)C(c2ccccc2)N4C(=O)CO3)c(Cl)c1C(F)(F)F (stereo not shown) [1-21] reads 35

# compound O=C1Nc2c(-c3ncc(C(F)(F)F)cc3Cl)c(F)cc3c2N(C(=O)CO3)C1c1ccccc1 (stereo not shown) [1-68] ; its Pre-emerge crop damage SOY (phytotoxicity rating) = 5

// C[C@@H]1Oc2cc(F)c(-c3nn(C)c(C(F)(F)F)c3Cl)c3c2N(CC(=O)N3)C1=O [1-49] : Pre-emerge crop damage SOY (phytotoxicity rating) value = 50

Memo: CCC1C(=O)Nc2c(-c3nn(C)c(OC(F)F)c3Cl)c(F)cc3c2N1C(=O)CO3 (stereo not shown) [1-28] , reported Pre-emerge crop damage SOY (phytotoxicity rating): 40

---

Test system: barnyardgrass (Echinachloa crus-galli, ECC)
Assay Remarks: Post-emerge test, barnyardgrass
Assay type: in vivo
Test Context: 250 g ai/ha, 14 days after application, rating scale 0-100 (0 no damage, 100 complete death)
Some molecules, each annotated with its measured Post-emerge Herbicidal Activity ECC (phytotoxicity rating).
Would you mind answering with just the numeric figure?

Solved entries (count: 3):
{"columns": ["Molecule", "Reported Value"],
 "data": [
  ["Cn1nc(-c2c(F)cc3c4c2NC(=O)C(Cl)N4C(=O)CO3)c(Cl)c1OC(F)F (centres unmarked)", 25],
  ["C[C@@H]1Oc2cc(F)c(-c3nn(C)c(C(F)(F)F)c3Cl)c3c2N(CC(=O)N3)C1=O", 100],
  ["CC1C(=O)Nc2c(-c3nn(C)c(C(F)(F)F)c3Cl)c(F)cc3c2N1C(=O)C(C)(C)O3 (centres unmarked)", 0]
]}

Summary: CCC1C(=O)Nc2c(-c3ncc(C(F)(F)F)cc3Cl)c(F)cc3c2N1C(=O)CO3 (centres unmarked) , barnyardgrass (Echinachloa crus-galli, ECC), Post-emerge Herbicidal Activity ECC (phytotoxicity rating) = 100

Post-emerge Herbicidal Activity ECC (phytotoxicity rating) of CC1C(=O)Nc2c(-c3ncc(C(F)(F)F)cc3Cl)c(F)cc3c2N1C(=O)CO3 (centres unmarked) , assay on barnyardgrass (Echinachloa crus-galli, ECC), is 100

Values from patent US6770596B1
